target: T1, human CLDN18.2 (human); test: FACS on SNU601 cells
T1 construct: the HEK293 line was made with a GenScript plasmid; also called hCLDN18.2
readoutKind: Emax (MFI)

| binder | Emax (MFI) |
| --- | --- |
| PR004949 (antibody, V domains shown, anti-CLDN18.2 HCAb: VH fused to human IgG1 Fc, no light chain; also called R1029P021C02) VH: EVQLVESGGGLVQPGGSLRLSCAASGFTFSAYWMHWVRQVPGRGLVWVSRINSDGSRTIYADSVKGRFTISRDNAKNTLYLQMNSLRAEDTAVYLCARGEDHDMLTGYPVRGQGTMVTVSS | 18300 MFI |

--- query ---
The recorded Emax (MFI) for entry PR004536 (antibody, V domains shown, anti-CLDN18.2 HCAb: VH fused to human IgG1 Fc, no light chain; also called R1029P028A11) VH: EVQLVESGGGLVQPGGSLRLSCAASGFTFSSYWMYWVRQVPGKGLVWVSHINSDGSTTQYADSVKGRFTISRDNAKNMLYLQMNSLRAEDTAVYYCARDFPVLGGSHFDFQHWGQGTLVTVSS equals 15800 MFI
